# Target desc: UniProt:Q92831
# Sequence (Q92831 whole entry): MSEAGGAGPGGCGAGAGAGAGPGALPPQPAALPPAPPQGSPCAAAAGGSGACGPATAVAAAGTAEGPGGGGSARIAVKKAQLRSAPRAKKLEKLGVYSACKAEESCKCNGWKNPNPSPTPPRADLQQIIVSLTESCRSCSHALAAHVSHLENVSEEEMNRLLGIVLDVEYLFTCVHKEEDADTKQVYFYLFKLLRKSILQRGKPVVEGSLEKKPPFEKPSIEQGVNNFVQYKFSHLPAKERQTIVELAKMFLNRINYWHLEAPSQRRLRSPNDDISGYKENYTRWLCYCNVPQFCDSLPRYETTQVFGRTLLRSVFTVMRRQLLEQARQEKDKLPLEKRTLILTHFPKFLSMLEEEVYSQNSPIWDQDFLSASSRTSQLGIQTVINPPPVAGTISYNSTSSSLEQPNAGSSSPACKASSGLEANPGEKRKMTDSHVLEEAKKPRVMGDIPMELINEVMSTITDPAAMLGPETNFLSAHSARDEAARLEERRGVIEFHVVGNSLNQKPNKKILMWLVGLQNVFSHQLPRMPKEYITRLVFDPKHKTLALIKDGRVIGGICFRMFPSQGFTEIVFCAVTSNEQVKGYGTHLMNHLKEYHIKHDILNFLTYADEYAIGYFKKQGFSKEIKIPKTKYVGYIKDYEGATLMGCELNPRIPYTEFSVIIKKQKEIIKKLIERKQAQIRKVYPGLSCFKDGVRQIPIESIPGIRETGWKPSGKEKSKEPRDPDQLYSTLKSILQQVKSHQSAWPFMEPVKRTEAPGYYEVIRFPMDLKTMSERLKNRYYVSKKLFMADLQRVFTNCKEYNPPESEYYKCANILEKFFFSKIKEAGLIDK
# Assay notes: Binding affinity to PCAF bromodomain (unknown origin) incubated for 60 mins by TR-FRET assay
Experimental readout: IC50

>>> readout_value("Cc1noc2c1-c1ccccc1C(c1ccc(Cl)cc1)=N[C@H]2CC(N)=O")
"> 20 µM"

---

Measured AUC(0-inf), listed per entry.
# Assay notes: AUC (0 to infinity) in rat at 5 mg/kg,po
# Assay type: ADME, organism-based
# Set-up: dose 5 mg/kg, route po
# Measurement setup: in vivo
Experimental readout: AUC(0-inf)

>>> readout_value("Cc1noc2c1-c1ccccc1C(c1ccc(C#N)cc1)=N[C@H]2CC(N)=O")
"5.9 µM·h"
>>> readout_value("Cc1noc2c1-c1ccccc1C(c1ccc(Cl)cc1)=N[C@H]2CC(N)=O")
"9.1 µM·h"
>>> readout_value("Cc1cccc2c1C(c1ccc(Cl)cc1)=N[C@@H](CC(N)=O)c1onc(C)c1-2")
"4.9 µM·h"

---

# Assay notes: Oral bioavailability in dog at 2.5 mg/kg
# Format: ADME, organism-based, Canis lupus familiaris
# Measurement setup: in vivo
Experimental readout: bioavailability

>>> readout_value("Cc1noc2c1-c1ccccc1C(c1ccc(Cl)cc1)=N[C@H]2CC(N)=O")
"45%"

---

# Assay notes: Protein binding in mouse plasma
# Type: ADME, cell-free
# Measurement setup: read-out: PPB (converted)
fraction unbound vs 0.02: at or above is 1, below is 0.

>>> classification("Cc1noc2c1-c1ccccc1C(c1ccc(Cl)cc1)=NC2C(N)=O (stereo not given)")
0
>>> classification("Cc1noc2c1-c1ccccc1C(c1ccc(Cl)cc1)=N[C@H]2CC(N)C(F)(F)F (stereo not given in full)")
0
>>> classification("CCNC(=O)NC1N=C(c2ccc(Cl)cc2)c2ccccc2-c2c(C)noc21 (stereo not given)")
1
>>> classification("CCNC(=O)C[C@@H]1N=C(c2ccc(Cl)cc2)c2ccccc2-c2c(C)noc21")
0
>>> classification("COc1ccc2c(c1)C(c1ccc(Cl)cc1)=N[C@@H](CC(N)=O)c1onc(C)c1-2")
1
>>> classification("Cc1noc2c1-c1ccccc1C(c1ccc(C#N)cc1)=N[C@H]2CC(N)=O")
1
>>> classification("Cc1ccc(C2=N[C@@H](CC(N)=O)c3onc(C)c3-c3ccccc32)cc1")
1
>>> classification("Cc1noc2c1-c1ccccc1C(c1ccc(Cl)cc1)=NC2")
0
>>> classification("Cc1noc2c1-c1ccc(-c3cn(C)cn3)cc1C(c1ccc(Cl)cc1)=N[C@H]2CC(N)=O")
1
>>> classification("COc1ccc(C2=N[C@@H](CC(N)=O)c3onc(C)c3-c3ccccc32)cc1")
1
>>> classification("Cc1noc2c1-c1ccccc1C(c1ccc(Cl)cc1)=N[C@H]2CC(N)=O")
1
>>> classification("COCCNC(=O)C[C@@H]1N=C(c2ccc(Cl)cc2)c2ccccc2-c2c(C)noc21")
0
>>> classification("Cc1noc2c1-c1ccccc1C(c1ccccc1)=N[C@H]2CC(N)=O")
1

---

# Target desc: Bromodomain-containing protein 8 (Homo sapiens)
# Sequence (Q9H0E9 whole entry): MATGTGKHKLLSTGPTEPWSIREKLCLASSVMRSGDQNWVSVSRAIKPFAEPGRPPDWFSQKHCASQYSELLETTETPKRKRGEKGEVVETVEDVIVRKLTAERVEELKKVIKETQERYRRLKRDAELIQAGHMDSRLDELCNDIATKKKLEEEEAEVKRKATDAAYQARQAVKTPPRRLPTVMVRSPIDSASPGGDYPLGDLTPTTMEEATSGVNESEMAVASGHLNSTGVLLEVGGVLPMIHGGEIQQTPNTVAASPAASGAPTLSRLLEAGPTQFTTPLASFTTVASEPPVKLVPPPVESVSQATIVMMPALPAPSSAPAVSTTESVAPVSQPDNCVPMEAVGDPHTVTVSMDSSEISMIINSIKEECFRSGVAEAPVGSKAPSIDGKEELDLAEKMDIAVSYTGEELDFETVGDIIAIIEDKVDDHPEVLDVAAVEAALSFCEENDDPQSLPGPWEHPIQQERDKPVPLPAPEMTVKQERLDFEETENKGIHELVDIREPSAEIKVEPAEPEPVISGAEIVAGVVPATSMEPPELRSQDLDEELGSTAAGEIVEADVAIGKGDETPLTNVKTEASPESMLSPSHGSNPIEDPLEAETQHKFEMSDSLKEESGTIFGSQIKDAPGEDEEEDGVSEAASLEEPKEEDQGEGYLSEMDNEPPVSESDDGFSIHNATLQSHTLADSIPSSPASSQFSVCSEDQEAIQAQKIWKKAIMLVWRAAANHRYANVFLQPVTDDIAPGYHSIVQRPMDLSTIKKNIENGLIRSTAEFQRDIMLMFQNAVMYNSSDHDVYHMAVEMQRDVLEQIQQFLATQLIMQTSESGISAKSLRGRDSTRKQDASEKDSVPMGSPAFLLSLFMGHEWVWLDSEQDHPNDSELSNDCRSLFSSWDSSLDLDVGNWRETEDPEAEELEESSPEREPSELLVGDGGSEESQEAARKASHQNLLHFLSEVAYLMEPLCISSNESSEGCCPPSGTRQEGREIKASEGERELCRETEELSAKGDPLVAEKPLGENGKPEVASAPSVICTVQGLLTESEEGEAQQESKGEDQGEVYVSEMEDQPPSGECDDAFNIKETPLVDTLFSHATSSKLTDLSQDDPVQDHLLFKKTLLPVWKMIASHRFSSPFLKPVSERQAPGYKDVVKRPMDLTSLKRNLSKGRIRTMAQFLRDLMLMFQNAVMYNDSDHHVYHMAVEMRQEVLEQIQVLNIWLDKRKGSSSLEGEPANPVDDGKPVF
# Assay notes: Displacement of biotinylated JQ1 from BRD8 bromodomain (unknown origin) incubated for 20 mins by AlphaLISA assay
pIC50: −log10 of the molar value.
Experimental readout: pIC50

>>> readout_value("Cc1noc2c1-c1ccccc1C(c1ccc(Cl)cc1)=N[C@H]2CC(N)=O")
"< 4.82"
